System: Rattus norvegicus
Assay: Ratio of effect of pretreatment with (+)-McN5652 with a dose of 2 mg/kg (i.v.) on specific binding of [18F]ACF in rat brain striatum to that of cerebellum
Type: ADME, organism-based
Set-up: dose 2 mg/kg, route intravenous
Settings: in vivo, iv

SMILES TEXT: CN(C)Cc1ccccc1Sc1cc(F)c(Cl)cc1N
Ratio: 1.48

----------
Species on record: Rattus norvegicus
Test: Organ distribution of [18F]ACF radiolabeled compound in rat kidney after 120 min
Assay type: ADME, organism-based
Conditions: in vivo, 2 h

SMILES TEXT: CN(C)Cc1ccccc1Sc1cc(F)c(Cl)cc1N
Dose/g, % dose/organ: 0.78

----------
Organism: Rattus norvegicus
Experiment: Organ distribution of [18F]-ACF radiolabeled compound in rat muscle after 60 min
Assay type: ADME, organism-based, Muscle tissue
Conditions: in vivo, 1 h
METRIC: Dose/g (% dose/organ)

SMILES TEXT: CN(C)Cc1ccccc1Sc1cc(F)c(Cl)cc1N
VALUE MEASURED: 7.69

----------
Species on record: Rattus norvegicus
Experiment: Organ distribution of [18F]ACF radiolabeled compound in rat liver after 2 min
Assay type: ADME, organism-based
Conditions: in vivo

SMILES TEXT: CN(C)Cc1ccccc1Sc1cc(F)c(Cl)cc1N
Dose/g, % dose/organ: 9.41

----------
Species: Rattus norvegicus
Test: Organ distribution of [18F]ACF radiolabeled compound in rat heart after 2 min
Type: ADME, organism-based
Conditions: in vivo
METRIC: Dose/g (% dose/organ)

SMILES TEXT: CN(C)Cc1ccccc1Sc1cc(F)c(Cl)cc1N
METRIC: Dose/g
VALUE MEASURED: 1.69

----------
Target: Sodium-dependent dopamine transporter (Rattus norvegicus)
Sequence (P23977 whole entry): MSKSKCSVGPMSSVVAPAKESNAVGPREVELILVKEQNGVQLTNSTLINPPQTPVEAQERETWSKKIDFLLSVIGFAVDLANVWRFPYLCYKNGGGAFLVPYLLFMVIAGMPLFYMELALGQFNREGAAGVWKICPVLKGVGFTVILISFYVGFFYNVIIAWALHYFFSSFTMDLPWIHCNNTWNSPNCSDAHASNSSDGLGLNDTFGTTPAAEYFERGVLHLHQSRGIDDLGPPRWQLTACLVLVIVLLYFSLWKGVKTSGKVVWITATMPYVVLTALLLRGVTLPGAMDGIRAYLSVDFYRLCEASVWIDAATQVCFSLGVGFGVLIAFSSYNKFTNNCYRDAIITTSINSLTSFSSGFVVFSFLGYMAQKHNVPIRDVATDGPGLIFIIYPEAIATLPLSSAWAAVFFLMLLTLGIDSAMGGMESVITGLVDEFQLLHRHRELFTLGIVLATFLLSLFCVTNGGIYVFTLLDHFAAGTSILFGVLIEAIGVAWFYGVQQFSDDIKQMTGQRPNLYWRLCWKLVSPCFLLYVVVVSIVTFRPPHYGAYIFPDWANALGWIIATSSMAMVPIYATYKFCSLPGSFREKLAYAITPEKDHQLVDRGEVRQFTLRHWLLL
Assay: In vitro binding affinity in LLC-PK1 cells by Dopamine transporter binding assay by using [125I]IPT as a radioligand
METRIC: Ki (µM)

SMILES TEXT: CN(C)Cc1ccccc1Sc1cc(F)c(Cl)cc1[N+](=O)[O-]
TARGET UNDER TEST: Sodium-dependent dopamine transporter (Rattus norvegicus)
VALUE MEASURED: 31.9
//
SMILES TEXT: CN(C)Cc1ccccc1Sc1ccc(I)cc1N
TARGET UNDER TEST: Sodium-dependent dopamine transporter (Rattus norvegicus)
VALUE MEASURED: 0.699
//
SMILES TEXT: CN(C)C(=O)c1ccccc1Sc1cc(N)c(Cl)cc1[N+](=O)[O-]
TARGET UNDER TEST: Sodium-dependent dopamine transporter (Rattus norvegicus)
VALUE MEASURED: 3.05

----------
Molecular target: Sodium-dependent noradrenaline transporter (Homo sapiens)
Sequence (P23975 whole entry, looked up): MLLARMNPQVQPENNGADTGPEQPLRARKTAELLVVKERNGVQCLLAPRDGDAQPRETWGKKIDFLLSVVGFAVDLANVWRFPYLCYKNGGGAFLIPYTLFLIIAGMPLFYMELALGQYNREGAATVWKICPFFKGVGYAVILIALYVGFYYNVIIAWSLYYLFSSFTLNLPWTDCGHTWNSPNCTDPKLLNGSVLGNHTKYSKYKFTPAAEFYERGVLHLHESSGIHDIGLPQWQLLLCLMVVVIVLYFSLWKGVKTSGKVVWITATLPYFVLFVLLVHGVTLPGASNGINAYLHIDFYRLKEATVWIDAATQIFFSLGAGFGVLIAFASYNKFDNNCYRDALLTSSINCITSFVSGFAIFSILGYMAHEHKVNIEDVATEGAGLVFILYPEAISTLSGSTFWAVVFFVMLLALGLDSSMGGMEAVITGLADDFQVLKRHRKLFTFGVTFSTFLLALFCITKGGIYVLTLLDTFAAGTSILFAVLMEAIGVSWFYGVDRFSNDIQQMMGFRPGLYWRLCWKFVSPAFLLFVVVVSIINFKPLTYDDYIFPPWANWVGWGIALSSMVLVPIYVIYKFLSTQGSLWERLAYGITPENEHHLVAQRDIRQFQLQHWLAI
Assay: In vitro binding affinity in LLC-PK1 cells by Norepinephrine transporter binding assay by using [125I]-IPT as a radioligand
Type: cell-based
Ki values by entry
METRIC: Ki (µM)

SMILES TEXT: CN(C)C(=O)c1ccccc1Sc1cc(N)c(Cl)cc1[N+](=O)[O-]
VALUE UNITS: µM
VALUE MEASURED: 15
--
SMILES TEXT: CN(C)Cc1ccccc1Sc1cc(F)c(Cl)cc1[N+](=O)[O-]
VALUE UNITS: µM
VALUE MEASURED: 2.81
--
SMILES TEXT: CN(C)Cc1ccccc1Sc1cc(F)c(Cl)cc1N
VALUE UNITS: µM
VALUE MEASURED: 0.65
--
SMILES TEXT: CN(C)Cc1ccccc1Sc1ccc(I)cc1N
VALUE UNITS: µM
VALUE MEASURED: 0.699
